experimental target: human TLR8 (Homo sapiens, UniProt Q9NR97)
assay summary: TLR8 inhibition reporter assay (HEK-Blue cells, SEAP reporter, R848 stimulation)
assay setup: HEK-Blue cells overexpressing human TLR8, R848 15.9 μM
pIC50: −log10 of the molar value.
endpoint name: pIC50

Example cases with answers are listed next.
[
  {
    "compound": "COc1ccc(-c2[nH]c3ccc(C4CCN(C(C)CO)CC4)cc3c2C)cc1OC (centres unmarked) [Example 43]",
    "experimental target": "human TLR8 (Homo sapiens, UniProt Q9NR97)",
    "pIC50": 6.03
  },
  {
    "compound": "COc1ccc(-c2[nH]c3ccc(C4CCN(C(=O)CC(F)(F)F)CC4)cc3c2CC(F)(F)F)cc1OC [Example 339]",
    "experimental target": "human TLR8 (Homo sapiens, UniProt Q9NR97)",
    "pIC50": 6.09
  }
]

(A) COc1ccc(-c2[nH]c3ccc(C4CCNCC4)cc3c2CC(F)(F)F)cc1OC [Example 329]
(B) COc1ccc(-c2[nH]c3ccc(C4CCN(C5CCN(Cc6cncn6C)CC5)CC4)cc3c2C)cc1OC [Example 59]
Ask: Compare A and B and name the one whose reported pIC50 is smaller. # answer = label of selected item
Reply: B
(B: 6.73, A: 7.72)

---

experimental target: human TLR8 (Homo sapiens, UniProt Q9NR97)
Sequence (Q9NR97 27-1041): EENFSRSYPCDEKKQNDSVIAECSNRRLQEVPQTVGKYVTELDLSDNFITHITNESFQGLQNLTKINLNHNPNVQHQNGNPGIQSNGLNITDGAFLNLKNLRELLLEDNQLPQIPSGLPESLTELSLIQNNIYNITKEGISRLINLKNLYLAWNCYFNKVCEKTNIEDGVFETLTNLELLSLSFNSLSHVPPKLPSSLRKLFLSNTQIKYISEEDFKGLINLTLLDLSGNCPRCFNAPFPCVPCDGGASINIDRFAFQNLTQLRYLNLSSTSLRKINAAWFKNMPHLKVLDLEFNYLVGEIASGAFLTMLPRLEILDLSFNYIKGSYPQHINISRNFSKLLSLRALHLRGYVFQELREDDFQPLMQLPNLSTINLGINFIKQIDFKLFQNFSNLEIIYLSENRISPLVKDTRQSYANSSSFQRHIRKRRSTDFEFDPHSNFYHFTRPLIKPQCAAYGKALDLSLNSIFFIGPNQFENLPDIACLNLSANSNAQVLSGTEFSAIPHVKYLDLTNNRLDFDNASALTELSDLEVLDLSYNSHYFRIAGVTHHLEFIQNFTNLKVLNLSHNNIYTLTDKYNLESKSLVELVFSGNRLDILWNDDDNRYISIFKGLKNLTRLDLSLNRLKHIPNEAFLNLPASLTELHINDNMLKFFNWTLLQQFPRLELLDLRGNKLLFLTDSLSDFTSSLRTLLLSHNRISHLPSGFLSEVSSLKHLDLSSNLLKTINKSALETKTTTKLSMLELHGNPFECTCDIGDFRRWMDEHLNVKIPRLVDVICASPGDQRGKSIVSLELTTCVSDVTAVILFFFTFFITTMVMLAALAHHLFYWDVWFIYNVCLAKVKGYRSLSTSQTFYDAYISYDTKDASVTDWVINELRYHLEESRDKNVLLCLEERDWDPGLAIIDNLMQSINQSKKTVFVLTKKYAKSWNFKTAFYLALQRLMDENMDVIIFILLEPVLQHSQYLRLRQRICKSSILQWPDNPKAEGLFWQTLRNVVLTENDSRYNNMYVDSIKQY
assay summary: TLR8 inhibition reporter assay (HEK-Blue cells, SEAP reporter, R848 stimulation)
assay setup: HEK-Blue cells overexpressing human TLR8, R848 15.9 μM
Description: TLR7/8/9 Inhibition Reporter Assays Briefly, cells are seeded into Greiner 384 well plates (15000 cells per well for TLR7, 20,000 for TLR8 and 25,000 for TLR9) and then treated with test compounds in DMSO to yield a final dose response concentration range of 0.05 nM-50 μM. […] The percent inhibition is determined as the % reduction in the HEK-Blue signal present in wells treated with agonist plus DMSO alone compared to wells treated with a known inhibitor.
endpoint name: IC50 (µM)

Example cases with answers are listed next.
[
  {
    "compound": "COc1ccc(-c2[nH]c3ccc(C4CCNCC4F)cc3c2C(C)C)cc1OC (racemic) [Example 319]",
    "experimental target": "human TLR8 (Homo sapiens, UniProt Q9NR97)",
    "endpoint name": "IC50",
    "result units": "µM",
    "experimental result": 0.046
  },
  {
    "compound": "CCc1c(-c2ccc(OC)c(OC)c2)[nH]c2ccc(C3CCN(C(=O)CNC4CCC(N(C)C)CC4)CC3)cc12 (stereo not shown) [Example 162]",
    "experimental target": "human TLR8 (Homo sapiens, UniProt Q9NR97)",
    "endpoint name": "IC50",
    "result units": "µM",
    "experimental result": 0.023
  },
  {
    "compound": "COc1ccc(-c2[nH]c3ccc(C4CCN(C(=O)CN5CCC[C@H](C(=O)N6CC[C@H](O)C6)C5)CC4)cc3c2C(C)C)cc1OC [Example 301]",
    "experimental target": "human TLR8 (Homo sapiens, UniProt Q9NR97)",
    "endpoint name": "IC50",
    "result units": "µM",
    "experimental result": 0.019
  },
  {
    "compound": "CNCCN1CCC(c2cc3c(C(C)C)c(-c4ccc(OC)c(OC)c4)[nH]c3cc2F)CC1 [Example 208]",
    "experimental target": "human TLR8 (Homo sapiens, UniProt Q9NR97)",
    "endpoint name": "IC50",
    "result units": "µM",
    "experimental result": 0.035
  }
]

(a) CCN1CCC(N2CCC(c3ccc4[nH]c(-c5ccc(OC)c(OC)c5)c(C)c4c3)CC2)CC1 [Example 44]
(b) COc1ccc(-c2[nH]c3ccc(C4CCN(C5CCN(C(C)C)CC5)CC4)cc3c2C(C)C)cc1OC [Example 201]
(c) COc1ccc(-c2[nH]c3ccc(C4CCN(CC(=O)N5CCC(N6CCCCC6)CC5)CC4)cc3c2CC(F)(F)F)cc1OC [Example 359]
Ask: Sequence the entries by IC50, beginning with the highest number. Put the labels in the requested order and write them down.
Reply: a, c, b
